Each recorded value in this set is attributed to the supplement of paper PMC12645437.

Recorded log2 fold change of degron read counts values for a group of sequences are listed next.
Molecular target: T1, CRBN, Q96SW2;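 also: pooled lentiviral library of zinc finger degron-EGFP fusions in mCherry-positive Jurkat cells, FACS-sorted after compound exposure, with degron abundance counted by next-generation sequencing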
T1 chain: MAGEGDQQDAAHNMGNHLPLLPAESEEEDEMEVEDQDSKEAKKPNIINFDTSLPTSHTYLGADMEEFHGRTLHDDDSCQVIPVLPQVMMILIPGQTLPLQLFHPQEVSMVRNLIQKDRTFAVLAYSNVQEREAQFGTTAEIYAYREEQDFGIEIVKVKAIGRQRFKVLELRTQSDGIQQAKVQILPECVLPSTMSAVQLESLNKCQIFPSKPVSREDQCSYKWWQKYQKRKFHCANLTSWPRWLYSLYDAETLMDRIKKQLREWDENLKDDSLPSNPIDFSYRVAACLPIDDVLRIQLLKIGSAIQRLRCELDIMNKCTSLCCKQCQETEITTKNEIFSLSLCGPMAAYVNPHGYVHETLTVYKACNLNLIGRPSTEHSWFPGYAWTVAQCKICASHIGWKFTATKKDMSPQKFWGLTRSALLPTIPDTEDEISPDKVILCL
Assay: log2 fold change of degron read counts, EGFP-low vs EGFP+ sorted cells (limma voom), compound-induced degradation; higher = more compound-induced degradation of the degron-EGFP fusion; degrons are variants of IKZF1/3 zinc finger 2; compound dose not given here
Settings: Jurkat; 18 h; compound: thalidomide
In all, about 8,300 sequences were measured (“log2 fold change of degron read counts, EGFP-low vs EGFP+ sorted cells (limma voom), compound-induced degradation”: median about -1.1, highest 2% from about 3.2 on). This is one part of a sample in which the highest values are shown more often than they occur.

[
  {
    "Sequence content": "LDCPICGFKCTQKGNLLRHIKL [46L_47D_49P_50I_52G_53F_54K_55C_67L_, Q9UKT9]",
    "log2 fold change of degron read counts": 2.02
  },
  {
    "Sequence content": "FRCPQCGAPFTQKGNLLRHIKL [46F_47R_49P_50Q_52G_53A_54P_55F_67L_, Q9UKT9]",
    "log2 fold change of degron read counts": 2.5
  },
  {
    "Sequence content": "FKCPICGAPFTQKGNLLRHIKL [46F_47K_49P_50I_52G_53A_54P_55F_67L_, Q9UKT9]",
    "log2 fold change of degron read counts": 2.87
  },
  {
    "Sequence content": "FFCPICGAMFTQKGNLLRHIKL [46F_47F_49P_50I_52G_53A_54M_55F_67L_, Q9UKT9]",
    "log2 fold change of degron read counts": 0.179
  },
  {
    "Sequence content": "LHCPICGFKCTQKGNLLRHIKL [46L_47H_49P_50I_52G_53F_54K_55C_67L_, Q9UKT9]",
    "log2 fold change of degron read counts": 1.4
  },
  {
    "Sequence content": "LECPICGFKCTQKGNLLRHIKL [46L_47E_49P_50I_52G_53F_54K_55C_67L_, Q9UKT9]",
    "log2 fold change of degron read counts": 3.26
  },
  {
    "Sequence content": "LGCPICGFKCTQKGNLLRHIKL [46L_47G_49P_50I_52G_53F_54K_55C_67L_, Q9UKT9]",
    "log2 fold change of degron read counts": 1.27
  },
  {
    "Sequence content": "FGCDICGAFFTQKGNLLRHIKL [46F_47G_49D_50I_52G_53A_54F_55F_67L_, Q9UKT9]",
    "log2 fold change of degron read counts": -1.18
  },
  {
    "Sequence content": "LSCPICGFKCTQKGNLLRHIKL [46L_47S_49P_50I_52G_53F_54K_55C_67L_, Q9UKT9]",
    "log2 fold change of degron read counts": 1.77
  },
  {
    "Sequence content": "FECPICGRRFTQKGNLLRHIKL [46F_47E_49P_50I_52G_53R_54R_55F_67L_, Q9UKT9]",
    "log2 fold change of degron read counts": 2.58
  },
  {
    "Sequence content": "LQCPICGFKCTQKGNLLRHIKL [46L_47Q_49P_50I_52G_53F_54K_55C_67L_, Q9UKT9]",
    "log2 fold change of degron read counts": 3.4
  },
  {
    "Sequence content": "FRCPICGADFTQKGNLLRHIKL [46F_47R_49P_50I_52G_53A_54D_55F_67L_, Q9UKT9]",
    "log2 fold change of degron read counts": 1.51
  },
  {
    "Sequence content": "FNCPICGAPFTQKGNLLRHIKL [46F_47N_49P_50I_52G_53A_54P_55F_67L_, Q9UKT9]",
    "log2 fold change of degron read counts": 2.43
  },
  {
    "Sequence content": "FSCPICGAPFTQKGNLLRHIKL [46F_47S_49P_50I_52G_53A_54P_55F_67L_, Q9UKT9]",
    "log2 fold change of degron read counts": 2.62
  },
  {
    "Sequence content": "LVCPICGFKCTQKGNLLRHIKL [46L_47V_49P_50I_52G_53F_54K_55C_67L_, Q9UKT9]",
    "log2 fold change of degron read counts": 2.78
  }
]
